Target: T1, biotin-peptide SESTSSMEDY (human)
T1 peptide: Biotin-SESTSSMEDY
Experiment: ELISA biotin-peptide; scFv 10 ug/mL; repI
Where no end group is shown, it is not given here. The star is where a group is joined. Biotin = O=C1N[C@H]2[C@H](CS[C@H]2CCCCC(=O)*)N1
Give OD450 for every item shown.
Record the value in OD, omitting the unit from your answer.

Exercise: GET /values?readout=OD450&item= CCR9_HUM2 scFv (humanized anti-CCR9 scFv, SEQ ID NO: 17 with C-terminal 6xHis tag) (scFv) scFv: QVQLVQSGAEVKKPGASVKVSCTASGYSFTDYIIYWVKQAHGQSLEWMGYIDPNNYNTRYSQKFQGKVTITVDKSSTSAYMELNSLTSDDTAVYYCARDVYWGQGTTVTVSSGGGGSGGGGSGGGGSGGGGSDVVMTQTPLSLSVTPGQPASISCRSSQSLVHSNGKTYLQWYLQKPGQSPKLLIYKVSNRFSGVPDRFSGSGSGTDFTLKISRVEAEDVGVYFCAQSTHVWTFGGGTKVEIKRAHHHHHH
Solution: 0.08

Exercise: GET /values?readout=OD450&item= Comparative antibody 2 (Comp-2) scFv, 243LO326 (VH SEQ ID NO: 51 and VL SEQ ID NO: 52 of WO 2022/195028 A2), His-tagged (scFv) scFv: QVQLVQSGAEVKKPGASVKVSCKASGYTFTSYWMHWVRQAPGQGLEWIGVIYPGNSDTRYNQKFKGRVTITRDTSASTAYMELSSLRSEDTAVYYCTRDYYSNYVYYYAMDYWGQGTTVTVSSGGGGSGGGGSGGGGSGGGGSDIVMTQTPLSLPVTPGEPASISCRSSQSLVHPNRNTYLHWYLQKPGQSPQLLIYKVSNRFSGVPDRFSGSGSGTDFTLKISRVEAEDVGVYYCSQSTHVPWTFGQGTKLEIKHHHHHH
Solution: 0.06

Exercise: GET /values?readout=OD450&item= Comparative antibody 1 (Comp-1) scFv, SEQ ID NO: 10 from WO2023/037125 A1, His-tagged (scFv) scFv: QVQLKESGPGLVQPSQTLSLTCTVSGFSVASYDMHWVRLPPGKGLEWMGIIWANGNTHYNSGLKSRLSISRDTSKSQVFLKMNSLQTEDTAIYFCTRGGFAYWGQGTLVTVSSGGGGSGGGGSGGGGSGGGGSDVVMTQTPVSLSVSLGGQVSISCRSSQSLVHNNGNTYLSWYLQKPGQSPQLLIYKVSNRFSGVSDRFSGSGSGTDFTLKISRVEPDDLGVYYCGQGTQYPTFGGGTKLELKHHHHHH
Solution: 0.13

Exercise: GET /values?readout=OD450&item= Comparative antibody 3 (Comp-3) scFv, SR_92R (Somovilla-Crespo et al. 2018), His-tagged (scFv) scFv: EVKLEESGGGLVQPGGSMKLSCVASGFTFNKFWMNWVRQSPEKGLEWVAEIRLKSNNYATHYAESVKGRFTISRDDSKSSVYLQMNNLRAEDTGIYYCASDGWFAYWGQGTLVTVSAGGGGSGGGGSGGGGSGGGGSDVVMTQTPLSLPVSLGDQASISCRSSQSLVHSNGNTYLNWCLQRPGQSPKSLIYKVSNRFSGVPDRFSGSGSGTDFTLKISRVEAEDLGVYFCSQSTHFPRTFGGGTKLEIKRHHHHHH
Solution: 0.15

Data provenance: patent US20260232732A1
